# target-or-test-system: thromboxane synthetase from rabbit platelet microsomes (Oryctolagus cuniculus, UniProt G1TAZ9)
# Sequence (G1TAZ9 1-530): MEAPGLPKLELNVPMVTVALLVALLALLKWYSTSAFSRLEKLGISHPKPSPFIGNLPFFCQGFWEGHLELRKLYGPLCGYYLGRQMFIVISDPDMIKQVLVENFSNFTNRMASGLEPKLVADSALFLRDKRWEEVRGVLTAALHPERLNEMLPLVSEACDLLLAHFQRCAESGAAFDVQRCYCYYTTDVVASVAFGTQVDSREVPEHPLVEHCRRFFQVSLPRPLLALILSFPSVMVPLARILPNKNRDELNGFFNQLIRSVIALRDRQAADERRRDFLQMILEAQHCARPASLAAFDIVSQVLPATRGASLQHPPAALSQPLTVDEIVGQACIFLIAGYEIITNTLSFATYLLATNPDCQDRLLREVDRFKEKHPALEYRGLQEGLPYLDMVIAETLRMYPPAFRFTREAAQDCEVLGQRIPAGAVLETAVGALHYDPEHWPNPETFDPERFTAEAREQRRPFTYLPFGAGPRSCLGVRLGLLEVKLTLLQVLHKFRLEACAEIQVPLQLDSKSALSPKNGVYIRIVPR
Counter-ions that a name gives are not always drawn.
measured-property: IC50 (nM)

compound | measured-property | recorded-number
CC(C)(CCCC#CCn1ccnc1)C(=O)O [Example 2, hydrochloride] | IC50 | 9
